# Assay Explanation: qHTS for identification of novel therapeutic agents for treatment of microphthalmiaassociated transcription factor (MiT) renal cell carcinoma (RCC) (AID 1963991);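 note: curves scaled with 100% = DMSO viability and 0% = empty wells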
# Run Parameters: TFE3-RCC viability, CellTiter-Glo, 48 h; measured here: UOK145 Z-AUC; stronger effect = lower value
Records with an inconclusive call do not appear.
// reported z-score for each item listed

1) CC(=O)N[C@H]1[C@@H]([C@H](O)[C@H](O)CO)OC(C(=O)O)=C[C@@H]1N=C(N)N ... 0.195
2) COC(=O)[C@H](CCCN=C(N)N)NS(=O)(=O)c1ccc(C)cc1 ... 0.701
3) O=C(C=Cc1ccc(CN(CCO)CCc2c[nH]c3ccccc23)cc1)NO ... -1.37
4) CNC(=O)Nc1ccc(-c2nc(N3CC4CCC(C3)O4)c3cnn(C4CCC5(CC4)OCCO5)c3n2)cc1 ... -2.73

Inquiry: For `COc1cc2c(Nc3ccc(Cl)c(Cl)c3F)ncnc2cc1OCC1C[C@@H]2CN(C)C[C@H]2C1` , write its z-score.
Reply text: -1.7

Inquiry: Give z-score for the following molecule: C#CCC(Cc1cnc2nc(N)nc(N)c2n1)c1ccc(C(=O)N[C@@H](CCC(=O)O)C(=O)O)cc1 (stereo partly drawn)
Reply text: -2.95

Inquiry: Quick one: give measured z-score for `COC(=O)[C@@H]1CC2=CC(=O)CC[C@]2(C)[C@@]23O[C@@H]2C[C@@]2(C)[C@H](CC[C@@]24CCC(=O)O4)[C@@H]13`
Reply text: 0.45

Inquiry: Consider the molecule OC[C@H]1OC(O)C[C@@H](O)[C@H]1O (stereo partly drawn) . State its measured z-score.
Reply text: -0.0329
